Recorded values, source PubChem BioAssay AID330.

- System: P388 leukemia ip, CD2F1 mice, survival T/C
- assayMethodText: NCI In Vivo Anticancer Drug Screen. Data for tumor model P388 Leukemia (intraperitoneal) in CD2F1 (CDF1) mice
- conditionDetails: endpoint: median survival time; dose: 50.0 mg/kg/injection; schedule: Q01DX005 (ip); vehicle: saline with Tween-80; higher = longer survival
Toxic doses and inconclusive results are not listed.
Measured T/C of individual entries

molecule: CC(=O)N(C)OS(C)(=O)=O
T/C: 101 % of control

molecule: CC1(C)CC(=O)NC(=O)N1
T/C: 99 % of control

molecule: O=C(CCN1CCCCC1)Nc1ccc(F)cc1F
T/C: 97 % of control

molecule: COCCCNC(=O)c1nc2ccccc2c(=O)n1NC(=O)Cc1ccccc1
T/C: 95 % of control

molecule: O=C(NCc1ccccc1)c1ccccc1NS(=O)(=O)c1ccc(Cl)c(Cl)c1
T/C: 96 % of control

molecule: COc1ccc(OC)c2c(Cl)ccnc12
T/C: 97 % of control

molecule: CC1(Cc2c(N)[nH]c(=S)[nH]c2=O)OCCO1
T/C: 105 % of control

molecule: CCOc1cc2c(cc1C/C=C/c1ccccc1)OCO2
T/C: 100 % of control

molecule: CC(C)c1ccc(C[n+]2ccccc2/C=N/O)cc1
T/C: 103 % of control

molecule: O=C(O)c1c(CS(F)(F)(F)(F)F)cc(=O)oc1CS(F)(F)(F)(F)F
T/C: 106 % of control

molecule: COc1cc(Br)c(CC(=O)c2ccc3c(c2)OCO3)cc1OC
T/C: 86 % of control

molecule: CCC(=N\N=C(N)N)/C(C)=N\N=C(N)N
T/C: 99 % of control

molecule: CN1CCN(C(=O)/C(=C/c2ccccc2)NC(=O)c2ccccc2)CC1
T/C: 96 % of control

molecule: CCOC(=O)C(Cc1ccc(O)cc1)NC(=O)C(CCCCN)N(C(=O)OCc1ccccc1)C(=O)OCc1ccccc1 (configuration not stated)
T/C: 96 % of control

molecule: COc1nc2cc3c(cc2n2cccc12)oc1ccccc13
T/C: 96 % of control

molecule: CCOc1c(N=Nc2ccccc2Cl)c(-c2ccccc2)nn1C(N)=S
T/C: 94 % of control

molecule: O=C1CN(c2ccc(Cl)cc2)C(=O)CN1/N=C/c1ccco1
T/C: 103 % of control

---

The compounds listed here are annotated with their T/C.
- Tested on: P388 leukemia ip, CD2F1 mice, survival T/C
- assayMethodText: NCI In Vivo Anticancer Drug Screen. Data for tumor model P388 Leukemia (intraperitoneal) in CD2F1 (CDF1) mice
- conditionDetails: endpoint: median survival time; dose: 12.5 mg/kg/injection; schedule: Q01DX009 (ip); vehicle: saline with Tween-80; higher = longer survival
Toxic doses and inconclusive results are not listed.

compound: O=[N+]([O-])C1CCC(O)C([N+](=O)[O-])C1 (stereo not given) (tested in a mixture with another compound)
T/C: 96 % of control

compound: COc1cc(OC)c(Br)cc1C
T/C: 100 % of control

compound: CCN(CC)CCOc1ccc(NC2=C(Cl)C(=O)C(Nc3ccc(OCCN(CC)CC)cc3)=C(Cl)C2=O)cc1
T/C: 105 % of control

compound: O=c1[nH]nc(-c2ccc([N+](=O)[O-])o2)o1
T/C: 106 % of control

compound: NNc1nncn2c1cc1ccccc12
T/C: 95 % of control

compound: CN(CCCN(C)CCC1CCCCC1)CCC1CCCCC1
T/C: 100 % of control

compound: COc1cc2c(cc1OC)-c1c3c(cc4c1[C@@H](C2)N(C)CC4)OCO3
T/C: 106 % of control

compound: O=C(/C=C/c1ccccc1)n1nnc2cc(Cl)c(Cl)cc21
T/C: 92 % of control

compound: COc1cc(NC(=O)CCl)ccc(=O)c1
T/C: 95 % of control

compound: Oc1c(Cl)cc(Cl)cc1C1Nc2ccccc2-n2cccc21 (stereo not given)
T/C: 96 % of control

compound: S=c1nc(N(c2ccccc2)c2ccccc2)[nH]s1
T/C: 104 % of control

compound: Cc1nc2c(sc(=N)n2-c2ccccc2)c(=O)[nH]1
T/C: 115 % of control

compound: c1cc2c(ccc3c4c([nH]c32)CCCC4)cn1
T/C: 101 % of control

compound: O=C(N=Nc1c(O)[nH]c2c(Cl)cc(Cl)cc12)C(=O)Nc1cccc(C(F)(F)F)c1
T/C: 93 % of control

compound: CCCCN(C)C(=S)N/N=C(\C)c1ccccn1
T/C: 101 % of control
